pIC50: −log10 of the molar value.
Several reports have described pIC50 for Poly [ADP-ribose] polymerase 2 (Homo sapiens, UniProt Q9UGN5); a selection of those results is presented here.
Reported Property: pIC50

Answered cases to consult:
>  <Given Smiles>
O=C(CCc1nc2ccccc2c(=O)[nH]1)N[C@H]1CC[C@H](n2c(=O)oc3ccccc32)CC1

>  <Numeric Value>
5.51

$$$$
>  <Given Smiles>
CN(C)C1CCN(Cc2ccc(-c3ccc4c(Cl)cc(C(N)=O)n4n3)cc2)CC1

>  <Numeric Value>
5.95

$$$$
>  <Given Smiles>
Cc1cccc2c(=O)[nH]c(CSc3ncccn3)nc12

>  <Numeric Value>
6.10

$$$$

(a) O=C1NCCc2c(-c3ccc(CN4CCN(c5ncccn5)CC4)cc3)[nH]c3cc(F)cc1c23
(b) NC(=O)c1cccc2cc(C(=O)N3CCN(Cc4cc5nc(-c6cnc(N)nc6)nc(N6CCOCC6)c5o4)CC3)oc12
Exercise: Out of a and b , name the one with the higher pIC50. Answer by quoting the chosen item's label.
Solution: b
